Where do the numbers come from? From patent US12172995B2.

target: human TLR9 (Homo sapiens, UniProt Q9NR96); test: TLR9 inhibition reporter assay (HEK-Blue SEAP); details: HEK-Blue cells overexpressing human TLR9, stimulated with ODN2006 5 nM, 22 hour incubation
Sequence (Q9NR96 26-1032): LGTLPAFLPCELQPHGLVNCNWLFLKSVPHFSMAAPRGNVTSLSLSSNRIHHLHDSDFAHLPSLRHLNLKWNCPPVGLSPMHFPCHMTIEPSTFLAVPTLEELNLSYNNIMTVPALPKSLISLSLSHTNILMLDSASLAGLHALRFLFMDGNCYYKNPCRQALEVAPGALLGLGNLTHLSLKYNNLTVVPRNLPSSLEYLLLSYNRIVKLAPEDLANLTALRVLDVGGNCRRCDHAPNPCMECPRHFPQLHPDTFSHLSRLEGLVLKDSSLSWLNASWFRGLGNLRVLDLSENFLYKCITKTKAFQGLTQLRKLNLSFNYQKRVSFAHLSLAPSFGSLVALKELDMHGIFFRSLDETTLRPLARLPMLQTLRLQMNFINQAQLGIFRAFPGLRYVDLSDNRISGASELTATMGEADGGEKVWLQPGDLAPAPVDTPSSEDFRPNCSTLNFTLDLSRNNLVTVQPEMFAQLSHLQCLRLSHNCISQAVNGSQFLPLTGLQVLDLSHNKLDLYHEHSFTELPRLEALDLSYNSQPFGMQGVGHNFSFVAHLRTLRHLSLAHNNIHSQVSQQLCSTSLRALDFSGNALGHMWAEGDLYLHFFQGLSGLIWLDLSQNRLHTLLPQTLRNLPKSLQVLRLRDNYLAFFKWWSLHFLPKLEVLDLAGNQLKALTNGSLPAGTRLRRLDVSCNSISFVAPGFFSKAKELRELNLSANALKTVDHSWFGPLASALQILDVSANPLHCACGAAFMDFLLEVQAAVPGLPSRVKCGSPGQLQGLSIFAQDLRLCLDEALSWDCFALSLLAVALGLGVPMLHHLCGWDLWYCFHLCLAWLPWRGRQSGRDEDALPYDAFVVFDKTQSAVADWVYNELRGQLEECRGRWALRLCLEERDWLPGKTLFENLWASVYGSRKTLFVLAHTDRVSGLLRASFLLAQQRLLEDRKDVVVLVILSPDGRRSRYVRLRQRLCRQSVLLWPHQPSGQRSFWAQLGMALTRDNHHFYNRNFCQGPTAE
IC50 reference
Use µM as the unit, but write only the number.

Worked set:
>>> measured_number("Cc1cc(-c2cc(C)c3ncnn3c2)cc2[nH]nc(C3CCN(C)CC3)c12 [Example 79]")
6.05
>>> measured_number("CCOC1CN(C2CCC(c3n[nH]c4cc(-c5cc(C)c6ncnn6c5)c(C(C)C)cc34)CC2)C1 (single isomer, unassigned) [Example 150]")
6.91

*Q* I would be grateful if you could share the reported IC50 for Cc1cc2c(C3CCNCC3)n[nH]c2cc1-c1cc(C)c(=O)n(C)c1 [Example 25] .
*A* 2.24

*Q* Lookup Cc1cc(-c2cc(C)c3ncnn3c2)cc2[nH]nc(C3CCCN(C)C3)c12 (stereo not drawn) [Example 61]
*A* 3.34

*Q* Lookup Cc1cc(-c2cc(C)c3ncnn3c2)cc2[nH]nc(OC3CCC(NCCS(C)(=O)=O)CC3)c12 (stereo not drawn) [Example 187]
*A* 1.82

*Q* Lookup CCc1cc2c(C3CCN(C(C)C)CC3)n[nH]c2cc1-c1cc(C)c2ncnn2c1 [Example 90]
*A* 7.94

*Q* Lookup Cc1cc(-c2cc3[nH]nc(C4CCC(N5CC6(CCOC6)C5)CC4)c3cc2C(C)C)cn2ncnc12 (stereo not drawn) [Example 157]
*A* 6.73

###

biological target: human TLR8 (Homo sapiens, UniProt Q9NR97); experiment: TLR8 inhibition reporter assay (HEK-Blue SEAP); conditions: HEK-Blue cells overexpressing human TLR8, stimulated with R848 15.9 μM, 22 hour incubation
Sequence (Q9NR97 27-1041): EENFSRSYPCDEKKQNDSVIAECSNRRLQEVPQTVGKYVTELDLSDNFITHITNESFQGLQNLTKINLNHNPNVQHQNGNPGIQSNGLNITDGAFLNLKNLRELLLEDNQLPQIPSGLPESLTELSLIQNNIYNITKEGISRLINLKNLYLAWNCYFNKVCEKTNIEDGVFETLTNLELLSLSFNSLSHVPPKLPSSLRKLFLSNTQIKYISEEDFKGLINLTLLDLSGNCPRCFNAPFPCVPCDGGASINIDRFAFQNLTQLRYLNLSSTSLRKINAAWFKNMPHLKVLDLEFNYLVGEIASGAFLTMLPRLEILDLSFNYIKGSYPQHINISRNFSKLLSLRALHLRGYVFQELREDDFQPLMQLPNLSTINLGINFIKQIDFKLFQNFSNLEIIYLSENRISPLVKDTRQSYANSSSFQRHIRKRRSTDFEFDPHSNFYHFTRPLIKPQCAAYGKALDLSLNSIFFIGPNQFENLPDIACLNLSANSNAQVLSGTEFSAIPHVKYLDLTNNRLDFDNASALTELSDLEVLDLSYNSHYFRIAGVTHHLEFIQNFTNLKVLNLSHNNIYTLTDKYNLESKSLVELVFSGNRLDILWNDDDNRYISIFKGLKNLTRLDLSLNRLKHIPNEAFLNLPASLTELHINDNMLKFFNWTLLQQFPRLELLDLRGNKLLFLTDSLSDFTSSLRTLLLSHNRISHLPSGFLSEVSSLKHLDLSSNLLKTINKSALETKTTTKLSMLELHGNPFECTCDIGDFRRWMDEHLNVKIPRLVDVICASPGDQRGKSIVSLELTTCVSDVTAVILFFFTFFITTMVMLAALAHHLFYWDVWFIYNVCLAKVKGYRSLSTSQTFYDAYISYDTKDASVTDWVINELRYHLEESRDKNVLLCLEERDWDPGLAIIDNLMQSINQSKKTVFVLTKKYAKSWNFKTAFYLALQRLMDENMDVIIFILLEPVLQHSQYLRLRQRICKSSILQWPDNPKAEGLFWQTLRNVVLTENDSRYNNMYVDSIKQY
pIC50: −log10 of the molar value.
Output MET for pIC50 not less than 9; output NOT MET otherwise.

>>> label_class("Cc1cc2c(C3CCCNC3)n[nH]c2cc1-c1cc(C)c(=O)n(C)c1 (stereo not shown) [Example 46]")
"NOT MET"
>>> label_class("Cc1cc(-c2cc3[nH]nc(C4CCC(N5CC6(COC6)C5)CC4)c3cc2C(C)C)cn2ncnc12 (single isomer, unassigned) [Example 128]")
"MET"
>>> label_class("Cc1cc(-c2cc(C)c3ncnn3c2)cc2[nH]nc(OC3CCC(NCCS(C)(=O)=O)CC3)c12 (stereo not shown) [Example 187]")
"NOT MET"
>>> label_class("CCc1cc(-c2cc(C)c3ncnn3c2)cc2[nH]nc(C3CCN(CC(=O)N(C)C)CC3)c12 [Example 8]")
"NOT MET"
>>> label_class("Cc1cc(-c2cc(C)c3ncnn3c2)cc2[nH]nc(OC3CCN(CC(=O)N(C)C)CC3)c12 [Example 176]")
"NOT MET"

*Q* Test whether the molecule Cc1cc2c(C3CCCN(C(=O)CN(C)C)C3)n[nH]c2cc1-c1cc(C)c2ncnn2c1 (stereo not shown) [Example 40] records pIC50 of 9 or higher.
*A* NOT MET

*Q* Lookup Cc1cc(-c2cc3[nH]nc(N4CCNCC4)c3cc2C(C)C)cn2ncnc12 [Example 206]
*A* NOT MET

*Q* Lookup Cc1cc2c(C3CCCN(CC(=O)N(C)C)C3)n[nH]c2cc1-c1cc(C)c2ncnn2c1 (stereo not shown) [Example 57]
*A* NOT MET

*Q* Lookup Cc1cc2c(C3CCNCC3)n[nH]c2cc1-c1cc(C)c(=O)n(C)c1 [Example 25]
*A* NOT MET

*Q* Lookup Cc1cc(-c2cc(C)c3ncnn3c2)cc2[nH]nc(OC3CCC(NC4CC4)CC3)c12 (single isomer, unassigned) [Example 190]
*A* NOT MET

*Q* Lookup Cc1cc(-c2cc3[nH]nc(C4CCC(N5CCC6(CCOC6)C5)CC4)c3cc2C(C)C)cn2ncnc12 (single isomer, unassigned) [Example 210]
*A* MET

*Q* Lookup Cc1cc(-c2cc3[nH]nc(C4CCC(N5CCC(F)C5)CC4)c3cc2C(C)C)cn2ncnc12 (stereo not shown) [Example 164]
*A* MET

*Q* Lookup Cc1cc(-c2cc(C)c3ncnn3c2)cc2[nH]nc(C3CCNCC3)c12 [Example 27]
*A* NOT MET
